src = patent US8673904B2

assayed_target: CatC (Rattus norvegicus, UniProt P80067)
Sequence (P80067 25-462): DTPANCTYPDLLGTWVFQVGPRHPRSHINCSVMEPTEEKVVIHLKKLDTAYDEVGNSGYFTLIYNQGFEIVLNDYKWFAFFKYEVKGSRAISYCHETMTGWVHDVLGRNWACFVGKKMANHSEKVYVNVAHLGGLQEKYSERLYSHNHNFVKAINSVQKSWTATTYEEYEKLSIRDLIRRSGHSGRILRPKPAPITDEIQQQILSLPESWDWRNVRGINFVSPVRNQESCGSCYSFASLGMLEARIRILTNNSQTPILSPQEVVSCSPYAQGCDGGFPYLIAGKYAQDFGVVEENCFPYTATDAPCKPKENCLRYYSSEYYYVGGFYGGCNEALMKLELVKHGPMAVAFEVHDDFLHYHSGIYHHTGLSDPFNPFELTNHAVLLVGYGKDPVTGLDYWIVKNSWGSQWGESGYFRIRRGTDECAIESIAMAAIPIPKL
test_name: IC50 by competition with radiolabeled general cathepsin probe DCG-04 in rat liver lysate
measurement_conditions: 1 mg/ml rat liver lysate, inhibitor 20 minutes, then DCG-04 1 hour
Procedure: Also included in the table for comparison are known compounds JPMOEt and JPMOH (also known as JPM-565). See Meara and Rich, J. Med. Chem. 39:3357-3366, 1996; Bogyo et al, Chem. Biol. 7:27-38, 2000; and Joyce et al., Cancer Cell 5:443-453, 2004. The table also lists cathepsin targets and measured IC50 values for specific compounds. […] After fixing and drying the gel, the residual enzyme activity was measured using ImageJ software. […]
pIC50: −log10 of the molar value.
Measured pIC50 values are reported for all entries that follow.

> print(dat)
                                   compound  result
1  CC(C)C[C@H](NC(=O)C1OC1C(=O)O)C(=O)N[C@@H](Cc1ccc(O)cc1)C(N)=O (some centres unmarked)  < 4.60
2  Cc1ccc(C[C@H](NC(=O)C2O[C@H]2C(=O)NCC(=O)O)C(=O)N[C@@H](Cc2ccc(O)cc2)C(N)=O)cc1 (some centres unmarked)  < 5.00
3  Cc1ccc(C[C@H](NC(=O)C2O[C@H]2C(=O)O)C(=O)N[C@@H](Cc2ccc(O)cc2)C(N)=O)cc1 (some centres unmarked)  < 4.60
4  CCC[C@H](NC(=O)C1O[C@H]1C(=O)NCC(=O)O)C(=O)N[C@@H](Cc1ccc(O)cc1)C(N)=O (some centres unmarked)  < 5.00

Proceed to the following item.
Report pIC50 from CatC (Rattus norvegicus, UniProt P80067) testing of CC(C)C[C@H](NC(=O)C1O[C@H]1C(=O)NCCCO)C(=O)N[C@@H](Cc1ccc(O)cc1)C(N)=O (some centres unmarked) < 4.30
